Attribution: patent US20190100553A1

- Tested system: UniProt P36639
Test readout: pIC50
Field pIC50 (float): negative decimal logarithm of the concentration in molar.

**Query** What value of pIC50 has been recorded for this entry: Nc1ncnc2c1c(-c1cccc(OCc3ccccc3)c1)cn2C1CC(CN2CCC2)C1 (stereo not shown)
**Result** 5.72
